The values you see were collected from ChEMBL document CHEMBL1250555.

As shown below, each of these molecules has a reported selectivity ratio value.
experiment: Therapeutic index, ratio of IC50 for human H9 cells to EC50 for HIV1 3B; assay type: cell-based; details: read-out: TI
QUANTITY: selectivity ratio

- Cc1cc(=O)oc2c3c(ccc12)[S+]([O-])[C@H](C)[C@H](OC(=O)[C@]12CC[C@](C)(C(=O)O1)C2(C)C)[C@@H]3OC(=O)[C@]12CC[C@](C)(C(=O)O1)C2(C)C (stereo partly drawn): 1.57
- Cc1cc(=O)oc2c3c(ccc12)OC[C@H](OC(=O)[C@]12CC[C@](C)(C(=O)O1)C2(C)C)[C@@H]3OC(=O)[C@]12CC[C@](C)(C(=O)O1)C2(C)C: 2.54
